Reference source: patent US9839642B2

- tgt: UniProt P52699
- Sequence (P52699 19-246, looked up, species assumed): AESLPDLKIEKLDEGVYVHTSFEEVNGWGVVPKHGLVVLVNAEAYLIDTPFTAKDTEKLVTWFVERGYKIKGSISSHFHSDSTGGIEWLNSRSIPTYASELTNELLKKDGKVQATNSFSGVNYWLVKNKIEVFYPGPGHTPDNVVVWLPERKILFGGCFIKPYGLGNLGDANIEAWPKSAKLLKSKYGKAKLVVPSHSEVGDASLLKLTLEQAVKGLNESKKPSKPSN
- assay: Enzyme activity: determination of IC50, fluorescence assay with CCF2-FA substrate
- Assay type: biochemical
- condition_details: IMP-1 enzyme 2 pM, CCF2-FA 1.25 μM, 2 hours at 25° C.; read-out: IMP1 IC50
Documented log10 of IC50 across a set of compounds
quantity_name: log10 of IC50 (log10 of the value in nM)

# compound, log10 of IC50
data = [
    ("CCC[C@H](C(=O)O)[C@H](Cc1cccc(F)c1)c1nnn[nH]1 [Example 260]", 2.94),
    ("CCC[C@H](C(=O)O)[C@H](Cc1cccc(-c2ccncc2)c1)c1nn[nH]n1 [Example 353]", 2.20),
    ("CCC[C@H](C(=O)O)[C@H](Cc1cccc(-c2ccc(C(=O)NC)cc2)c1)c1nn[nH]n1 [Example 344]", 1.45),
    ("CCC[C@H](C(=O)O)[C@H](Cc1cccc(-c2cccnc2)c1)c1nn[nH]n1 [Example 339]", 2.20),
    ("CC(C)(C)[C@H](C(=O)O)C(Cc1ccc(N)nc1)c1nnn[nH]1 (some centres unmarked) [Example 420]", 1.71),
    ("CC(C)C[C@H](C(=O)O)[C@H](Cc1ccc(Oc2ccccn2)nc1)c1nn[nH]n1 [Example 391]", 2.81),
    ("CCC[C@H](C(=O)O)[C@H](Cc1cccc(-c2cccc(C(N)=O)c2)c1)c1nn[nH]n1 [Example 341]", 2.04),
    ("CCC[C@H](C(=O)O)[C@H](Cc1ccc(C(=O)NC)cc1)c1nnn[nH]1 [Example 279]", 3.98),
    ("CCC[C@H](C(=O)O)[C@H](Cc1cccc(N2CCC[C@H](N)C2)c1)c1nn[nH]n1 [Example 366]", 3.93),
    ("CCC[C@H](C(=O)O)[C@H](Cc1cccnc1)c1nnn[nH]1 [Example 264]", 3.85),
    ("CC(C)C[C@H](C(=O)O)[C@H](Cc1ccc(Oc2ccnc(N3CCNCC3)c2)nc1)c1nn[nH]n1 [Example 379]", 2.57),
    ("CC(C)(C)[C@H](C(=O)O)[C@@H](Cc1cccc2sc(Br)nc12)c1nnn[nH]1 [Example 423]", 0.44),
    ("CCC[C@H](C(=O)[O-])[C@H](Cc1ccc(C2=CC[N+](C)(C)CC2)cc1)c1nnn[nH]1 [Example 295]", 3.04),
    ("Nc1ccc(C[C@H](c2nnn[nH]2)[C@H](CC(F)(F)F)C(=O)O)cn1 [Example 435]", 3.89),
    ("CCC[C@H](C(=O)O)[C@H](Cc1cccc(N2CCCC(O)C2)c1)c1nn[nH]n1 (some centres unmarked) [Example 360]", 2.71),
    ("CCC[C@H](C(=O)O)[C@H](Cc1cccc(N2CCCCC2)c1)c1nn[nH]n1 [Example 368]", 2.87),
    ("CCC[C@H](C(=O)O)[C@H](Cc1ccc(C2CCNCC2O)cc1)c1nnn[nH]1 (mixture of isomers) [Example 416]", 3.06),
    ("CC(C)C[C@H](C(=O)O)[C@H](Cc1ccc(Oc2ccc(CCN)cc2)nc1)c1nn[nH]n1 [Example 371]", 2.46),
    ("CCC[C@H](C(=O)O)[C@H](Cc1cccc(N2CCN(C(C)=O)CC2)c1)c1nn[nH]n1 [Example 363]", 2.91),
    ("CC(C)C[C@H](C(=O)O)[C@H](Cc1ccc(Oc2ccc(CO)cc2)nc1)c1nn[nH]n1 [Example 383]", 2.18),
    ("CCC[C@H](C(=O)O)[C@H](Cc1ccc(CCN2CCCC2=O)cc1)c1nn[nH]n1 [Example 253]", 1.99),
    ("CCC[C@H](C(=O)[O-])[C@H](Cc1ccc(C2CC[N+](C)(C)CC2)cc1)c1nnn[nH]1 [Example 294]", 2.84),
    ("CCC[C@H](C(=O)O)[C@H](Cc1cccc(N(C)CCN(C)C)c1)c1nn[nH]n1 [Example 361]", 3.94),
    ("CCC[C@H](C(=O)O)[C@H](Cc1cccc(N2CC[C@@H](N)C2)c1)c1nn[nH]n1 [Example 364]", 3.20),
    ("CC(C)C[C@H](C(=O)O)[C@H](Cc1ccc(N2CCC(CN)CC2)nc1)c1nnn[nH]1 [Example 307]", 2.59),
    ("CC(C)C[C@H](C(=O)O)[C@H](Cc1ccc(Oc2ccc(CN)cc2)nc1)c1nn[nH]n1 [Example 390]", 2.38),
    ("CCC[C@H](C(=O)O)[C@H](CCCc1ccc(N)nc1)c1nnn[nH]1 [Example 406]", 2.91),
    ("CCC[C@H](C(=O)O)[C@H](Cc1ccccc1-c1ccccc1)c1nn[nH]n1 [Example 393]", 3.00),
    ("CCC[C@H](C(=O)O)[C@H](Cc1ccccc1-c1ccc(C(N)=O)cc1)c1nn[nH]n1 [Example 394]", 2.65),
    ("CCC[C@H](C(=O)O)[C@H](Cc1ccccc1-c1ccc(N)nc1)c1nn[nH]n1 [Example 398]", 3.04),
    ("CC(C)C[C@H](C(=O)O)[C@H](Cc1ccc(Oc2cccc(CN)c2)nc1)c1nn[nH]n1 [Example 400]", 2.88),
]
